# Test system: SNB-75 CNS
# test.protocol: NCI-60 one-dose screen, 48 h (100 = growth as untreated, 0 = no growth, -100 = all killed)
# assay.context: 10 µM unless noted
Compounds without any hit were thinned out: in the full panel of roughly 83,000, 20% have a hit.
quantity: growth (%)
Please give a number only; it is taken to be in %.

Consider the reported growth for these compounds:
> print(dat)
                  item.smiles  measured.number
1  Clc1ccc2sc(-c3ccccc3)nc2c1             67.7
2                 COCCNC(C)=O             99.2

We next turn to a different compound, shown below.
// growth lookup, compound = `CSc1nc(N)c(N)c(N)n1` , result: 97.5

---

The molecules listed here are annotated with their growth.
# Test system: LOX IMVI melanoma
# test.protocol: NCI-60 one-dose screen, 48 h (100 = growth as untreated, 0 = no growth, -100 = all killed)
# assay.context: 10 µM unless noted
About 83,000 compounds went through this panel and 20% of them were active in at least one assay; those are over-represented in the sample as a whole.
Please give a number only; it is taken to be in %.

// growth lookup, molecule = `CCCCNC(=O)c1ccccc1C` , result: 96.9

// growth lookup, molecule = CC1CCC(=O)N1c1ccc(N)cc1 (stereo not given) , result: 95.1

// growth lookup, molecule = O=C(c1ccc(Cl)cc1)C1C(c2ccccc2)C1[N+](=O)[O-] (stereo not given) , result: 95.2

// growth lookup, molecule = `Nc1nc(-c2ccccn2)cc(-c2cc(-c3ccccn3)nc(N)n2)n1` , result: 96.5

// growth lookup, molecule = `Cc1ccc([N+](=O)[O-])cc1Br` , result: 105

// growth lookup, molecule = `Cc1cnc(N)s1` , result: 98.6

---

# System: ACHN renal
# test.protocol: NCI-60 one-dose screen, 48 h (100 = growth as untreated, 0 = no growth, -100 = all killed)
# assay.context: 10 µM unless noted
The panel holds about 83,000 compounds, 20% with a hit somewhere; the sample as a whole holds those more often. Active and inactive are the calls of the source. The calls were made as follows: active = growth percent below 10; inactive = the rest.
The compounds listed here are annotated with their growth.

> print(dat)
                                   compound                    result
1  O=C(N=C1C(=O)C2(CCCCC2)C2(N=C(c3ccccc3)OC2=O)C12CCCCC2)c1ccccc1 (stereo not drawn)          80.5% (inactive)
2                    O=C1c2cccnc2-c2ncccc21  112% [100 µM] (inactive)

We next turn to a different compound, shown below.
Tested on ACHN renal, the item O=P(O)(O)OC1C(OP(=O)(O)O)C(OP(=O)(O)O)C(OP(=O)(O)O)C(OP(=O)(O)O)C1OP(=O)(O)O.[Cu+2] (stereo not drawn) showed growth equal to 99.7% (inactive)

---

# Tested on: UO-31 renal
# test.protocol: NCI-60 one-dose screen, 48 h
# assay.context: 10 µM unless noted
Compounds without any hit were thinned out: in the full panel of roughly 83,000, 20% have a hit. The source made the active and inactive calls. The calls were made as follows: active = growth percent below 10; inactive = the rest.
API: response.call in t for active, f for inactive

> print(dat)
                      compound  measured.target  qualitative.label
1  O=S(=O)(O)c1ccc2cc(O)ccc2c1      UO-31 renal                  f

Here is another compound to look at.
Ask | What was the test verdict on `COc1ccc(/C=N/NC(N)=S)cc1` ?
Reply | f
